Experimental System: UniProtKB Q8NET8
Assay Overview: Calcium flux assay (FLIPR TETRA), recombinant HEK293 cells expressing TRPV3, 2-APB response
Condition Context: 2-APB at its EC80
pIC50: −log10 of the molar value.
Observed Property: pIC50

// below: answered compounds
COc1ncnc(OC)c1C(=O)Nc1nc(C(F)(F)F)c(-c2ccc(F)nc2)s1 : 7.00 to 7.30
CCOC(=O)c1sc(NC(=O)c2c(OC)ncnc2OC)nc1C(C)(C)C : > 7.30
COc1ncnc(OC)c1C(=O)Nc1nc(C(F)(F)F)c(CN(C)C(C)(C)C)s1 : 6.30 to 7.00
COc1ncnc(OC)c1C(=O)Nc1nc(C(F)(F)F)c(C(O)c2ccccc2)s1 (stereo not shown) : 6.30 to 7.00
COc1ncnc(OC)c1C(=O)Nc1nc(C(C)(C)C)c(F)s1 : > 7.30

Now for a further compound.
The compound identified as COc1ncnc(OC)c1C(=O)Nc1nc(C(F)(F)F)c(-c2ccc(C3(C#N)CC3)cn2)s1 registered its pIC50 at 7.00 to 7.30

----------
Experimental System: human TRPV3 (Homo sapiens)
Assay Overview: Calcium flux assay (FLIPR TETRA), recombinant HEK293 cells expressing TRPV3, 2-APB response
Condition Context: 2-APB at its EC80
# IC50 per record follows

COc1ncnc(OC)c1C(=O)Nc1nc(/C=C/c2ccc(F)cc2)cs1 : 500 to 1000 nM
COc1ncnc(OC)c1C(=O)Nc1nc(C(F)(F)F)c(CCCO)s1 : > 1000 nM
COc1ncnc(OC)c1C(=O)Nc1nc(C(F)(F)F)c(-c2ccnc(N3CCOCC3)c2)s1 : 50 to 100 nM
COc1ncnc(OC)c1C(=O)Nc1nc(C(F)(F)F)c(-c2ccc3nonc3c2)s1 : < 50 nM
CO/N=C(\C)c1sc(NC(=O)c2c(OC)ncnc2OC)nc1C(F)(F)F : < 50 nM

Query COc1ncnc(OC)c1C(=O)Nc1nc(C(F)(F)F)c(C2=CCC(C#N)CC2)s1 (centres unmarked) on human TRPV3 (Homo sapiens); IC50 returned: 100 to 500 nM

Query COc1ncnc(OC)c1C(=O)Nc1nc(C(F)(F)F)c(-c2cccc(S(=O)(=O)N3CCOCC3)c2)s1 on human TRPV3 (Homo sapiens); IC50 returned: 50 to 100 nM

Query COc1ncnc(OC)c1C(=O)Nc1nc(C(F)(F)F)c(-c2cccc(C#N)n2)s1 on human TRPV3 (Homo sapiens); IC50 returned: < 50 nM

Query COc1ncnc(OC)c1C(=O)Nc1nc(C(F)(F)F)c(-c2ccncc2C#N)s1 on human TRPV3 (Homo sapiens); IC50 returned: 100 to 500 nM

Query COc1ncnc(OC)c1C(=O)Nc1nc(C(F)(F)F)c(-c2ccc(C(C)(C)C#N)cc2)s1 on human TRPV3 (Homo sapiens); IC50 returned: 100 to 500 nM

Query COc1ncnc(OC)c1C(=O)Nc1nc(-c2ccc(C(F)(F)F)cn2)cs1 on human TRPV3 (Homo sapiens); IC50 returned: < 50 nM

----------
Experimental System: human TRPV3 (Homo sapiens)
Sequence (Q8NET8 1-790): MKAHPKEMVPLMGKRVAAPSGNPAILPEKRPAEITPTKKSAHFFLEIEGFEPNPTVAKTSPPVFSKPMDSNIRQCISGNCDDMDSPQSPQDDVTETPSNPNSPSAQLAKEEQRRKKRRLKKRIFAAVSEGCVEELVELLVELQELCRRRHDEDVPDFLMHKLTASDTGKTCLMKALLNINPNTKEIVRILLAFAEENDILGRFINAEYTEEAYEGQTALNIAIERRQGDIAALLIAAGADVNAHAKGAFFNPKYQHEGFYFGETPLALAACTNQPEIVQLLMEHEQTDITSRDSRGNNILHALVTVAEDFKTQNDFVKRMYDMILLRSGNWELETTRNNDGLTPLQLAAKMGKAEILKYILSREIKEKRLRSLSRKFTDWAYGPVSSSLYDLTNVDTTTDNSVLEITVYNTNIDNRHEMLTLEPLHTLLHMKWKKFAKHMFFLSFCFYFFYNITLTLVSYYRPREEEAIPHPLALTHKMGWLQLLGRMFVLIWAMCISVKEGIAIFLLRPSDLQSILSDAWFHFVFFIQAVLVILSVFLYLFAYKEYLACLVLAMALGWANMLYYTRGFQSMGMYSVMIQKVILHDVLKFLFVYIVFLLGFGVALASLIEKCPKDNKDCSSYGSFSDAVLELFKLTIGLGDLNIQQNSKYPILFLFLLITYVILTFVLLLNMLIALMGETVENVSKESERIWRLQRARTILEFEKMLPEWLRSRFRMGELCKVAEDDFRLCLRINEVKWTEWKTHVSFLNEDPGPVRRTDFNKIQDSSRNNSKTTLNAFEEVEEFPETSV
Assay Overview: Calcium flux assay (FLIPR TETRA), recombinant HEK293 cells expressing TRPV3, 2-APB response
Condition Context: 2-APB at its EC80
Protocol: (i) In Vitro Methods-Calcium Flux Assays: Experiments were conducted using the FLIPR TETRA®. […] The intensity of the fluorescence was captured and digitally transferred to an interfaced PC. The peak increase in fluorescence over baseline, measured in relative fluorescence units, was calculated and expressed as the percentage of the maximal 2-APB (2-aminoethoxyldiphenyl borate) response (in the absence of compound). […]
pIC50: −log10 of the molar value.
# pIC50 per record follows

// below: answered compounds
COc1ncnc(OC)c1C(=O)Nc1nc(C(F)(F)F)c(-c2ccc(C(C)(C)C#N)cn2)s1 : > 7.30
COc1nc(C#N)nc(C(F)(F)F)c1C(=O)Nc1nc(C(F)(F)F)c(I)s1 : 6.30 to 7.00
COc1ncnc(OC)c1C(=O)Nc1nc(C(F)(F)F)c(-c2ccnc3ccccc23)s1 : > 7.30
COc1ncnc(OC)c1C(=O)Nc1nc(C(F)(F)F)c(CNC2CCCC2)s1 : 6.30 to 7.00
COc1ncnc(OC)c1C(=O)Nc1nc(C(F)(F)F)c(C(=O)c2ccccn2)s1 : < 6.00
COc1ncnc(OC)c1C(=O)Nc1nc(C(F)(F)F)c(CN2CC[C@H](F)C2)s1 : 6.30 to 7.00
COc1ncnc(OC)c1C(=O)Nc1nc(C2CCC(F)(F)CC2)cs1 : 6.30 to 7.00
COc1ncnc(OC)c1C(=O)Nc1nc(C(F)(F)F)c(-c2cc3ncccc3o2)s1 : 6.30 to 7.00

Now for a further compound.
Query COc1ncnc(OC)c1C(=O)Nc1nc(C(F)(F)F)c(CN2CCOCC2)s1 on human TRPV3 (Homo sapiens); pIC50 returned: < 6.00

----------
# pIC50 per record follows
Experimental System: human TRPV3 (Homo sapiens, UniProt Q8NET8)
Sequence (Q8NET8 1-790): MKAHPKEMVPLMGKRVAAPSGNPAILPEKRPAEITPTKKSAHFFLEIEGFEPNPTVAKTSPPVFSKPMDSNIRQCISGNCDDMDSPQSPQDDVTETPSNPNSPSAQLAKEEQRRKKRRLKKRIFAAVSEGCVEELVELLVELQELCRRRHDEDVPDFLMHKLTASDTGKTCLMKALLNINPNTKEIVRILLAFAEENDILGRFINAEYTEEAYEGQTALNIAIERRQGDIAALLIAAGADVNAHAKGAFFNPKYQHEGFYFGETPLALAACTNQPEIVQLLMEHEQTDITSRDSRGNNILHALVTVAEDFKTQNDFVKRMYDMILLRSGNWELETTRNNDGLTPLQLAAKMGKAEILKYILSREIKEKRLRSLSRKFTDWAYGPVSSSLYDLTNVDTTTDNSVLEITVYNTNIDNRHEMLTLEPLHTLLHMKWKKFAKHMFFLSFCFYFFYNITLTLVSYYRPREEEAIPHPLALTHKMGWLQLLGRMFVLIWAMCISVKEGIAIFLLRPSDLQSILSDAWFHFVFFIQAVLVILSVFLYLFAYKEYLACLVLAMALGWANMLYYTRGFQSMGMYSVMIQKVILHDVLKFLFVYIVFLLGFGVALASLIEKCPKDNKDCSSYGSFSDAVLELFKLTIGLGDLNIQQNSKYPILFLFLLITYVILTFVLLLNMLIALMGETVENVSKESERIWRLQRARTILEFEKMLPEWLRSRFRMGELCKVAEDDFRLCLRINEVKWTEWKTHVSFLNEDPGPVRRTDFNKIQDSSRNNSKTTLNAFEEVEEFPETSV
Assay Overview: Calcium flux assay (FLIPR TETRA), recombinant HEK293 cells expressing TRPV3, 2-APB response
Condition Context: 2-APB at its EC80
pIC50: −log10 of the molar value.

// below: answered compounds
COc1ncnc(OC)c1C(=O)Nc1nc(C(F)(F)F)c(CN(C)CC(C)C)s1 [Example 54] : > 7.30
COCC#Cc1sc(NC(=O)c2c(OC)ncnc2OC)nc1C(F)(F)F [Example 15] : > 7.30
CCOc1ncnc(OCC)c1C(=O)Nc1nc(C(F)(F)F)c(C#N)s1 [Example 7] : 6.00 to 6.30

The compound identified as CO/N=C(\C)c1sc(NC(=O)c2c(OC)ncnc2OC)nc1-c1ccc(C(F)(F)F)cn1 [Example 89] registered its pIC50 at > 7.30
